subject_of_test: PfENT1-HA-CO (Plasmodium falciparum)
Construct: HA
Sequence (Q8IDM6 whole entry): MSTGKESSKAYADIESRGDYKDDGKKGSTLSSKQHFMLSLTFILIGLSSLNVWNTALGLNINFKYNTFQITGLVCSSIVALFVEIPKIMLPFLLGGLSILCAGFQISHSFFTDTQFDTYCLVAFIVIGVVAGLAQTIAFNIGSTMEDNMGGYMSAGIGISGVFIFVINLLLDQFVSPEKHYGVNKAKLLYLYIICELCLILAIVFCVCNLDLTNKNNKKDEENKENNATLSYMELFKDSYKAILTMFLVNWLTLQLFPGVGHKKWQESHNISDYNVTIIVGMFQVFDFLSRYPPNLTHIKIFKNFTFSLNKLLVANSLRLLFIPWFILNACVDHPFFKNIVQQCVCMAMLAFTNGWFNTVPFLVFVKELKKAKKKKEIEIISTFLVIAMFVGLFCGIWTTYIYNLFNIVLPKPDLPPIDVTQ
experiment_notes: Concentration-dependent rescue of PfENT1-HA-CO-expressing fui1Δ yeast from 5-FUrd induced death
assay_readout: pIC50
# reply with the number alone; pIC50 is -log10 of concentration in mol/L

molecule	subject_of_test	pIC50
O=C(Nc1ccc(-c2nc3ncccc3o2)cc1)c1ccccc1Br [compound 2]	PfENT1-HA-CO (Plasmodium falciparum)	5.22
COc1cc(COc2ccc3c(C)cc(=O)oc3c2)cc(OC)c1OC [HTS Rank #3]	PfENT1-HA-CO (Plasmodium falciparum)	5.64
O=C(Nc1ccc2nc(NC(=O)c3ccco3)sc2c1)c1ccco1 [compound 1]	PfENT1-HA-CO (Plasmodium falciparum)	6.10

// lookup pIC50 for Cn1cc(C(=O)C(=O)Nc2ccc(C(=O)N3CCCC3)cc2)c2ccccc21 [compound 5]
5.19

// lookup pIC50 for Cc1ccccc1/C=C/c1nc2ccccc2c(=O)[nH]1 [compound 13]
5.33

###

subject_of_test: PfENT1 (Plasmodium falciparum)
Construct: expressed in transfected cells; host or cells: fui1Δ yeast (Saccharomyces cerevisiae), co-expressing GFP
Sequence (Q8IDM6 whole entry): as above
Assay type: cell-based
test_conditions: primary HTS, compounds at 10 μM, 125 μM 5-FUrd
assay_readout: Avg Normalized % maximal activity (%)
Write down the numeric answer in % and omit the unit.

Sample records with Avg Normalized % maximal activity:
compound	subject_of_test	assay_readout	recorded_measurement
COc1ccc(Cl)cc1NC(=O)c1ccc2nccnc2c1	PfENT1 (Plasmodium falciparum)	Avg Normalized % maximal activity	5.62
CCN(CC)C(=O)c1ccc(-c2ccc(N3CCOCC3)c3ccccc23)nn1	PfENT1 (Plasmodium falciparum)	Avg Normalized % maximal activity	7.64
O=C(Nc1cccc(NC(=O)c2ccco2)c1)c1cccc(Br)c1	PfENT1 (Plasmodium falciparum)	Avg Normalized % maximal activity	6.23

What value of Avg Normalized % maximal activity has been reported for the following compound? O=C(Nc1cccc(-c2nc3ncccc3o2)c1)c1ccc2c(c1)OCCO2
3.02

Requested read-out: Avg Normalized % maximal activity. Entry: O=C(Nc1ccc(-c2nc3ncccc3o2)cc1)c1ccccc1Br
91.94

Please report the recorded Avg Normalized % maximal activity for COc1ccc(NC(=O)C2(c3ccccc3)CCCC2)cc1 .
3.87

###

subject_of_test: PfENT1 (Plasmodium falciparum)
Construct: expressed in transfected cells; host or cells: fui1Δ yeast (Saccharomyces cerevisiae), co-expressing GFP
Type: cell-based
test_conditions: primary HTS, compounds at 10 μM, 125 μM 5-FUrd
assay_readout: Avg Normalized % maximal activity (%)
I only need the number, in %, no unit after it.

// below: answered molecules
molecule	Avg Normalized % maximal activity / %
Cc1cc2nc(Nc3nc(=O)c(C)c(C)[nH]3)nc(C)c2cc1C	3.04
O=C(Nc1ccc(-c2nnc(-c3ccco3)o2)cc1)C1CCCO1 (stereo not shown)	15.22
O=C(Nc1sc2c(c1CNC1CCCCC1)CCCC2)c1ccccc1	2.74
CCN(CC)C(=O)COc1ccc2c(c1)oc(=O)c1cc(OC)ccc12	22.15
Cc1cc(=O)oc2cc(OCc3ccc4c(c3)OCO4)ccc12	3.56
CCSc1nnc(NC(=O)c2cc(Br)ccc2Cl)s1	3.89
CC(C)(C)c1nnc(NC(=O)c2cccc(Cl)c2)s1	6.79
Cc1ccc2c(Cl)c(C(=O)Nc3cccnc3)sc2c1	7.53

API: value(readout=Avg Normalized % maximal activity, system=PfENT1 (Plasmodium falciparum)) for record CC1(C)CC(=O)c2sc(NC(=O)c3ccccc3F)nc2C1
7.27

Identify the measured Avg Normalized % maximal activity of COCc1cc(C)nc2sc(C(=O)Nc3ccc(NC(C)=O)cc3)c(N)c12 for PfENT1 (Plasmodium falciparum).
2.04

Hello, I am looking for reported Avg Normalized % maximal activity with PfENT1 (Plasmodium falciparum) for COc1ccc(-c2nnc(OC)c3ccccc23)cc1 . Could you help?
13.58

Find Avg Normalized % maximal activity (PfENT1 (Plasmodium falciparum)) for the entry Nc1nc(N)n(-c2ccccc2)n1
4.28

Hello, I am looking for reported Avg Normalized % maximal activity with PfENT1 (Plasmodium falciparum) for COc1ccc(-c2cnc3ccccc3n2)cc1NC(=O)c1ccncc1 . Could you help?
24.18

Observed Avg Normalized % maximal activity on PfENT1 (Plasmodium falciparum) for COC(=O)c1ccccc1NC(=O)c1cccc(NC(=O)c2cccs2)c1C , please.
4.55

Avg Normalized % maximal activity of COc1ccc(NC(=O)C2Cc3ccccc3C(=O)O2)cc1 (stereo not shown) on PfENT1 (Plasmodium falciparum)?
4.69
